- tgt: Caspase-4 (Homo sapiens, UniProt P49662)
- Sequence (P49662 whole entry): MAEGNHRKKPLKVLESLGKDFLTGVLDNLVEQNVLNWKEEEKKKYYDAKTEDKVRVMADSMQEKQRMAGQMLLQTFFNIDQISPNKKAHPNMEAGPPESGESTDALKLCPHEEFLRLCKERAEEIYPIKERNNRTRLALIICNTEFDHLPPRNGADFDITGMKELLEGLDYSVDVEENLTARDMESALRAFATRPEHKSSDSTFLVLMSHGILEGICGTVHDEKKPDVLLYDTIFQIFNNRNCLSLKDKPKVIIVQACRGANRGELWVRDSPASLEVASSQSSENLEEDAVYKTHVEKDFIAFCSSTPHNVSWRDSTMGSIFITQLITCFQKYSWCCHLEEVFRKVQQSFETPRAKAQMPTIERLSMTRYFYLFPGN
- methodSummary: Inhibition of human recombinant N-terminal His-tagged DTT-activated caspase-4 expressed in Escherichia coli using Ac-LEVD-AMC as substrate preincubated for 30 mins followed by substrate addition by fluorescence assay
measurementLabel: log10 IC50 (log10 of the value in nM)

{"smilesString": "c1ccc(CCN2CCN(c3cc(N4CCCC4)nc(N4CCCC4)n3)CC2)cc1", "tgt": "Caspase-4 (Homo sapiens, UniProt P49662)", "observed": 1.32}
{"smilesString": "c1c(N2CCCC2)nc(N2CCCC2)nc1N1CCNCC1", "tgt": "Caspase-4 (Homo sapiens, UniProt P49662)", "observed": 2.75}
{"smilesString": "COc1cc(CN2CCN(c3cc(N4CCCC4)nc(N4CCCC4)n3)CC2)cc(OC)c1", "tgt": "Caspase-4 (Homo sapiens, UniProt P49662)", "observed": 2.60}
{"smilesString": "c1cc(CN2CCN(c3cc(N4CCCC4)nc(N4CCCC4)n3)CC2)ccn1", "tgt": "Caspase-4 (Homo sapiens, UniProt P49662)", "observed": 3.03}
{"smilesString": "c1c(N2CCCC2)nc(N2CCCC2)nc1N1CCN(CC2CCCCC2)CC1", "tgt": "Caspase-4 (Homo sapiens, UniProt P49662)", "observed": 2.92}
{"smilesString": "C[C@]12C=CC(=O)C=C1CC[C@@H]1C2=CC[C@]2(C)[C@@H](C(=O)CN3CCN(c4cc(N5CCCC5)nc(N5CCCC5)n4)CC3)CC[C@@H]12", "tgt": "Caspase-4 (Homo sapiens, UniProt P49662)", "observed": 2.96}
{"smilesString": "O=C(c1ccccc1)c1ccc(CN2CCN(c3cc(N4CCCC4)nc(N4CCCC4)n3)CC2)cc1", "tgt": "Caspase-4 (Homo sapiens, UniProt P49662)", "observed": 2.51}
{"smilesString": "c1cncc(CN2CCN(c3cc(N4CCCC4)nc(N4CCCC4)n3)CC2)c1", "tgt": "Caspase-4 (Homo sapiens, UniProt P49662)", "observed": 3.37}

----------
- tgt: Caspase-5 (Homo sapiens)
- methodSummary: Inhibition of human recombinant DTT-activated caspase-5 expressed in Escherichia coli using Ac-WEHD-AMC as substrate preincubated for 30 mins followed by substrate addition by fluorescence assay
Readings of log10 of Ki for the listed compounds
measurementLabel: log10 of Ki (log10 of the value in nM)

{"smilesString": "COc1cccc(CN2CCN(c3cc(N4CCCC4)nc(N4CCCC4)n3)CC2)c1", "tgt": "Caspase-5 (Homo sapiens)", "log10 of Ki": 2.05}
{"smilesString": "O=C(c1ccccc1)c1ccc(CN2CCN(c3cc(N4CCCC4)nc(N4CCCC4)n3)CC2)cc1", "tgt": "Caspase-5 (Homo sapiens)", "log10 of Ki": 1.45}
{"smilesString": "C[C@]12C=CC(=O)C=C1CC[C@@H]1C2=CC[C@]2(C)[C@@H](C(=O)CN3CCN(c4cc(N5CCCC5)nc(N5CCCC5)n4)CC3)CC[C@@H]12", "tgt": "Caspase-5 (Homo sapiens)", "log10 of Ki": 2.32}
{"smilesString": "c1cncc(CN2CCN(c3cc(N4CCCC4)nc(N4CCCC4)n3)CC2)c1", "tgt": "Caspase-5 (Homo sapiens)", "log10 of Ki": 1.77}
{"smilesString": "COc1cc(CN2CCN(c3cc(N4CCCC4)nc(N4CCCC4)n3)CC2)cc(OC)c1", "tgt": "Caspase-5 (Homo sapiens)", "log10 of Ki": 1.53}
{"smilesString": "c1cc(CN2CCN(c3cc(N4CCCC4)nc(N4CCCC4)n3)CC2)ccn1", "tgt": "Caspase-5 (Homo sapiens)", "log10 of Ki": 1.53}
{"smilesString": "c1c(N2CCCC2)nc(N2CCCC2)nc1N1CCN(CC2CCCCC2)CC1", "tgt": "Caspase-5 (Homo sapiens)", "log10 of Ki": 1.77}
{"smilesString": "FC(F)(F)c1ccc(CN2CCN(c3cc(N4CCCC4)nc(N4CCCC4)n3)CC2)cc1", "tgt": "Caspase-5 (Homo sapiens)", "log10 of Ki": 2.13}
{"smilesString": "c1ccc(CCN2CCN(c3cc(N4CCCC4)nc(N4CCCC4)n3)CC2)cc1", "tgt": "Caspase-5 (Homo sapiens)", "log10 of Ki": 1.20}
{"smilesString": "O=[N+]([O-])c1ccc(CN2CCN(c3cc(N4CCCC4)nc(N4CCCC4)n3)CC2)cc1", "tgt": "Caspase-5 (Homo sapiens)", "log10 of Ki": 2.00}
{"smilesString": "O=[N+]([O-])c1ccccc1CN1CCN(c2cc(N3CCCC3)nc(N3CCCC3)n2)CC1", "tgt": "Caspase-5 (Homo sapiens)", "log10 of Ki": 1.38}
{"smilesString": "c1ccc(CN2CCN(c3cc(N4CCCC4)nc(N4CCCC4)n3)CC2)cc1", "tgt": "Caspase-5 (Homo sapiens)", "log10 of Ki": 1.61}
{"smilesString": "FC(F)(F)c1cc(CN2CCN(c3cc(N4CCCC4)nc(N4CCCC4)n3)CC2)cc(C(F)(F)F)c1", "tgt": "Caspase-5 (Homo sapiens)", "log10 of Ki": 1.68}
{"smilesString": "c1c(N2CCCC2)nc(N2CCCC2)nc1N1CCNCC1", "tgt": "Caspase-5 (Homo sapiens)", "log10 of Ki": 1.67}

----------
- tgt: Caspase-5 (Homo sapiens, UniProt P51878)
- Sequence (P51878 137-327 limits assumed): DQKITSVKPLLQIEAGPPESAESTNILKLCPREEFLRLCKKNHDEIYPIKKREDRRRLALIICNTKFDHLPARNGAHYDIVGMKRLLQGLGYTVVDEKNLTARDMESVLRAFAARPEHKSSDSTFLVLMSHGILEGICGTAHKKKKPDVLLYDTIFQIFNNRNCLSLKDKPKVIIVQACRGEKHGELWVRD
- Sequence (P51878 347-434 limits assumed): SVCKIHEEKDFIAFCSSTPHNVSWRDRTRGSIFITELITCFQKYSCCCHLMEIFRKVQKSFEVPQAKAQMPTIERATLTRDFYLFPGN
- methodSummary: Inhibition of human recombinant DTT-activated caspase-5 expressed in Escherichia coli using Ac-WEHD-AMC as substrate preincubated for 30 mins followed by substrate addition by fluorescence assay
In this section we review reported IC50 values for a set of compounds.

{"smilesString": "FC(F)(F)c1cc(CN2CCN(c3cc(N4CCCC4)nc(N4CCCC4)n3)CC2)cc(C(F)(F)F)c1", "tgt": "Caspase-5 (Homo sapiens, UniProt P51878)", "IC50 / nM": 210}
{"smilesString": "COc1cccc(CN2CCN(c3cc(N4CCCC4)nc(N4CCCC4)n3)CC2)c1", "tgt": "Caspase-5 (Homo sapiens, UniProt P51878)", "IC50 / nM": 482}
{"smilesString": "O=[N+]([O-])c1ccccc1CN1CCN(c2cc(N3CCCC3)nc(N3CCCC3)n2)CC1", "tgt": "Caspase-5 (Homo sapiens, UniProt P51878)", "IC50 / nM": 105}
{"smilesString": "O=C(c1ccccc1)c1ccc(CN2CCN(c3cc(N4CCCC4)nc(N4CCCC4)n3)CC2)cc1", "tgt": "Caspase-5 (Homo sapiens, UniProt P51878)", "IC50 / nM": 123}
{"smilesString": "O=[N+]([O-])c1ccc(CN2CCN(c3cc(N4CCCC4)nc(N4CCCC4)n3)CC2)cc1", "tgt": "Caspase-5 (Homo sapiens, UniProt P51878)", "IC50 / nM": 430}
{"smilesString": "c1cc(CN2CCN(c3cc(N4CCCC4)nc(N4CCCC4)n3)CC2)ccn1", "tgt": "Caspase-5 (Homo sapiens, UniProt P51878)", "IC50 / nM": 146}
{"smilesString": "COc1cc(CN2CCN(c3cc(N4CCCC4)nc(N4CCCC4)n3)CC2)cc(OC)c1", "tgt": "Caspase-5 (Homo sapiens, UniProt P51878)", "IC50 / nM": 149}
{"smilesString": "c1ccc(CCN2CCN(c3cc(N4CCCC4)nc(N4CCCC4)n3)CC2)cc1", "tgt": "Caspase-5 (Homo sapiens, UniProt P51878)", "IC50 / nM": 71}
{"smilesString": "c1ccc(CN2CCN(c3cc(N4CCCC4)nc(N4CCCC4)n3)CC2)cc1", "tgt": "Caspase-5 (Homo sapiens, UniProt P51878)", "IC50 / nM": 178}
{"smilesString": "c1c(N2CCCC2)nc(N2CCCC2)nc1N1CCNCC1", "tgt": "Caspase-5 (Homo sapiens, UniProt P51878)", "IC50 / nM": 205}
{"smilesString": "C[C@]12C=CC(=O)C=C1CC[C@@H]1C2=CC[C@]2(C)[C@@H](C(=O)CN3CCN(c4cc(N5CCCC5)nc(N5CCCC5)n4)CC3)CC[C@@H]12", "tgt": "Caspase-5 (Homo sapiens, UniProt P51878)", "IC50 / nM": 910}
{"smilesString": "c1cncc(CN2CCN(c3cc(N4CCCC4)nc(N4CCCC4)n3)CC2)c1", "tgt": "Caspase-5 (Homo sapiens, UniProt P51878)", "IC50 / nM": 254}
{"smilesString": "FC(F)(F)c1ccc(CN2CCN(c3cc(N4CCCC4)nc(N4CCCC4)n3)CC2)cc1", "tgt": "Caspase-5 (Homo sapiens, UniProt P51878)", "IC50 / nM": 586}
{"smilesString": "c1c(N2CCCC2)nc(N2CCCC2)nc1N1CCN(CC2CCCCC2)CC1", "tgt": "Caspase-5 (Homo sapiens, UniProt P51878)", "IC50 / nM": 254}
